Parameter protein stability index: see the listing below.
Assay: protein stability index of a GFP-peptide fusion (GPS, HEK-293T) (PSI 1-6); higher = more stable;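 note: 24-mer peptide tiles fused after GFP, lentivirally expressed, FACS-sorted into six equal bins by GFP/DsRed ratio, decoded by Illumina sequencing, PSI is the read-weighted mean bin number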
Conditions: treatment: DMSO; c terminus: a fixed tail appended
Respond with the number and no other words.

Worked examples follow.
TNCQKVLNMWCCCFFKRRKRKTIQ [CSNK1G3] | 4.01
YETKYVVLSYLGLLSQEKLQEQHL [BCL2L13] | 2.63
GTENGAIDAVPVDENLFTGEDLDE [ZC3H15] | 5.7

# input Tell me measured protein stability index for HWKTWLAIKCSPSLHVDDRERMEL [RIPK4] please.
# output 2.38

# input Tell me measured protein stability index for NIRPADSRWVRDPRYREDPCKQCK [FBXO34] please.
# output 4.13

* * *

Experiment: protein stability index of a GFP-peptide fusion (GPS, HEK-293T) (PSI 1-6); higher = more stable
Settings: treatment: DMSO; c terminus: a fixed tail appended
Param threshold (3) applies to protein stability index; output fulfilled when value >= threshold, not fulfilled when value < threshold.

# input Please check the record LKYVRGLLQTEPQNNQAKELERLI [FIS1] and state if its protein stability index is at or above 3.
# output not fulfilled

# input Please check the record DPDGKKIKQIQQLFEEILSNSRQL [FBXO33] and state if its protein stability index is at or above 3.
# output not fulfilled

# input Please check the record VTSNGSIGRDPPAETQPQNPPAQP [CLPTM1] and state if its protein stability index is at or above 3.
# output fulfilled

# input Please check the record IPEGLNYSENAPFHLSLFQGWMNL [PLD5] and state if its protein stability index is at or above 3.
# output not fulfilled

* * *

Experiment: protein stability index of a GFP-peptide fusion (GPS, HEK-293T) (PSI 1-6); higher = more stable
Conditions: treatment: MLN4924 1 uM, 8 h; c terminus: a fixed tail appended
Param threshold (3) applies to protein stability index; output criterion met when value >= threshold, criterion not met when value < threshold.

Please review the following examples before continuing.
ELKMRAIQAEERLDMEKRRCRQSL [LRRC45] | criterion met
RSLEELTRLAFELFAEEQAEGPNR [LPCAT4] | criterion met
RTFLETSTDTAVTNEWEKRLSTSP [EPB41L3] | criterion met
DPTQRILYRDVMLETFGHLLSIGP [ZNF8] | criterion not met
AGADLPPPKIRLKPHRLGDSEHEP [PWWP2B] | criterion met

# input Please check the record FLLLYLFTLGTNAIIISTIVLDRA [OR10K2] and state if its protein stability index is at or above 3.
# output criterion met

# input Please check the record NVAASNAKLALFYDWLFFSPDKDS [INTS3] and state if its protein stability index is at or above 3.
# output criterion not met

* * *

Parameter protein stability index: see the listing below.
Experiment: protein stability index of a GFP-peptide fusion (GPS, HEK-293T) (PSI 1-6); higher = more stable
Settings: treatment: DMSO; c terminus: a fixed tail appended
Respond with the number and no other words.

Worked examples follow.
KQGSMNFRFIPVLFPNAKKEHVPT [TRAF3IP2] | 2.41
PDGLRSGDGVPPRSLQDGTREGFG [LCOR] | 4.95
SARYLSQCQEAEQARAELTAQHQR [FBF1] | 4.76
LINSNVSMVDLTSVTLEDVTPKKS [FAN1] | 3.34
KAENARLVVNIDNAKLASDDFRSK [KRT34] | 4.62

# input Tell me measured protein stability index for EDGSVELESQVQKDGVADSTVISS [C18orf25] please.
# output 5.5

# input Tell me measured protein stability index for CSDSDKKCHLWTAMDLGFFVVMGV [CLCN6] please.
# output 2.95
